Target: dAsCas12a S542R (Acidaminococcus sp., UniProt U2UMQ6 1-1307, S542R;D908A;E993A;D1235A)
Assay: Spec-seq (native PAGE EMSA with sequencing of bound and unbound); 25 mM Tris-HCl pH 7.4, 150 mM KCl, 5 mM MgCl2, 10% glycerol, 1 mM DTT, 40 ng/uL salmon sperm DNA; 400 nM Cas12a, 480 nM crRNA, 50 nM library, 37 C 1 h; native PAGE at room temperature; high values mean tight binding;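 note: relative affinity from the bound to unbound sequence frequency ratio in Spec-seq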
Details: protein: recombinant
Here, each record is paired with measured binding signal data.
METRIC: binding signal (lnKA)

[
  {
    "BINDER": "GACA (dsDNA) DNA 1: GCTATCTAGTGCTCAGTACGCACTGGACAAGGAAACTTCTGGCAGGACCAGGTCATGAGATCGGAAGAGCACACGTCTGAACTCCAGTCA DNA 2: TGACTGGAGTTCAGACGTGTGCTCTTCCGATCTCATGACCTGGTCCTGCCAGAAGTTTCCTTGTCCAGTGCGTACTGAGCACTAGATAGC RNA: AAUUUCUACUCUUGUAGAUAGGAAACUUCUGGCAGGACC",
    "METRIC": "binding signal",
    "UNITS_LABEL": "lnKA",
    "VAL": -8.67
  },
  {
    "BINDER": "CGCA (dsDNA) DNA 1: GCTATCTAGTGCTCAGTACGCACTGCGCAAGGAAACTTCTGGCAGGACCAGGTCATGAGATCGGAAGAGCACACGTCTGAACTCCAGTCA DNA 2: TGACTGGAGTTCAGACGTGTGCTCTTCCGATCTCATGACCTGGTCCTGCCAGAAGTTTCCTTGCGCAGTGCGTACTGAGCACTAGATAGC RNA: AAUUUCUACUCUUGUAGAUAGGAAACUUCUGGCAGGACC",
    "METRIC": "binding signal",
    "UNITS_LABEL": "lnKA",
    "VAL": -8.48
  },
  {
    "BINDER": "GTCT (dsDNA) DNA 1: GCTATCTAGTGCTCAGTACGCACTGGTCTAGGAAACTTCTGGCAGGACCAGGTCATGAGATCGGAAGAGCACACGTCTGAACTCCAGTCA DNA 2: TGACTGGAGTTCAGACGTGTGCTCTTCCGATCTCATGACCTGGTCCTGCCAGAAGTTTCCTAGACCAGTGCGTACTGAGCACTAGATAGC RNA: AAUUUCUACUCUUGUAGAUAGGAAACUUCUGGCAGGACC",
    "METRIC": "binding signal",
    "UNITS_LABEL": "lnKA",
    "VAL": -7.55
  }
]
